B1: HDV Ribozyme (parent)
chain: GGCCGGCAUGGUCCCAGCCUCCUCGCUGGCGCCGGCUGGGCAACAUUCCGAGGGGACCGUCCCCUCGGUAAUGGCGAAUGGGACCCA

Variants of: B1
method_summary: self-cleavage, relative activity (ratio to wild type); higher = more cleavage; co-transcriptional
measured_property: self-cleavage

[[record]]
input_sequence = "GACCGGCAUGGUCCCAGCCUCCUCGCUGGCGCCGGCUGGGCAACAUUCCGAGGGGACCGUCGCCUCGGUAAUGGCGAAUGGGACCCA [G2A C62G]"
value_measured = 0.086

[[record]]
input_sequence = "GGCCGGCAUGGUCCCAGCCUCCACGCUGGAGCCGGCUGGGCAACAUUCCGAGGGGACCGUCCCCUCGGUAAUGGCGAAUGGGACCCA [U23A C30A]"
value_measured = 0.466

[[record]]
input_sequence = "GGCCGGCAUGGUCCCAGCCUCCUCGCUGGCGCCGGCUCGGCAACAUUCCGAGGGGACCGUCCCCUCGGUAAUGGCGAAUGGGAACCA [G38C C84A]"
value_measured = 0.18

[[record]]
input_sequence = "GGCCGGGAUGGUCCCAGCCUCCUCGCUGGCGCCGGCUGGGCAACAUUCCGAGGGGACGGUCCCCUCGGUAAUGGCGAAUGGGACCCA [C7G C58G]"
value_measured = 0.293

[[record]]
input_sequence = "GGCCGGCAUGGUCCCAGCCUCCUCGCUGGCGCCGGCUGAGCAACAUUCCGAGGGCACCGUCCCCUCGGUAAUGGCGAAUGGGACCCA [G39A G55C]"
value_measured = 0.443

[[record]]
input_sequence = "GGCCGGCAUGGUCCCAGCCUCCUCGCUGGCGCCGGCUGGGGAACAUUCCUAGGGGACCGUCCCCUCGGUAAUGGCGAAUGGGACCCA [C41G G50U]"
value_measured = 0.708

[[record]]
input_sequence = "GGCCGGCAUGUUCCCAGCCUCCUCGCUGGCGCCGGCUGGGCAACAUUCCGAGGGGACCGUCCCCUCGGUAUUGGCGAAUGGGACCCA [G11U A71U]"
value_measured = 0.158

[[record]]
input_sequence = "GGCCGGCAUGGUCCCAGCCUCCUCGCUGGCGCCGGCUGGGCAACAUUCCGAGGGGACCCUCCCCUCGGUAAUGGCGAAUGGGGCCCA [G59C A83G]"
value_measured = 0.917

[[record]]
input_sequence = "GGCCGGCAUGGUCCCAGCCUCCUCGCUGGCUCCGGCUGGGCAACAUUCCGAGGGGACCGUCCCUUCGGUAAUGGCGAAUGGGACCCA [G31U C64U]"
value_measured = 0.475

[[record]]
input_sequence = "GGCCGGCAUGGUCCCAGCCUCCUCGCUGGCUCCGGCUGGGCAACAUUCCGAGGGGACCGUCCCCGCGGUAAUGGCGAAUGGGACCCA [G31U U65G]"
value_measured = 0.383

[[record]]
input_sequence = "GGCCGGCAUGGUCCCAGCCUCCUCGCUGGCGCCGGCUGGGCAACAUUCCGAGGGGACCAUCCCCUCGGUAAUGGCGAAUGGGAACCA [G59A C84A]"
value_measured = 0.929


The values you see were collected from the RNAGym collection of RNA variant scans (doi:10.7554/elife.80360).
